# SUBJECT_OF_TEST: UniProt Q5XXA6
# Sequence (Q5XXA6 whole entry): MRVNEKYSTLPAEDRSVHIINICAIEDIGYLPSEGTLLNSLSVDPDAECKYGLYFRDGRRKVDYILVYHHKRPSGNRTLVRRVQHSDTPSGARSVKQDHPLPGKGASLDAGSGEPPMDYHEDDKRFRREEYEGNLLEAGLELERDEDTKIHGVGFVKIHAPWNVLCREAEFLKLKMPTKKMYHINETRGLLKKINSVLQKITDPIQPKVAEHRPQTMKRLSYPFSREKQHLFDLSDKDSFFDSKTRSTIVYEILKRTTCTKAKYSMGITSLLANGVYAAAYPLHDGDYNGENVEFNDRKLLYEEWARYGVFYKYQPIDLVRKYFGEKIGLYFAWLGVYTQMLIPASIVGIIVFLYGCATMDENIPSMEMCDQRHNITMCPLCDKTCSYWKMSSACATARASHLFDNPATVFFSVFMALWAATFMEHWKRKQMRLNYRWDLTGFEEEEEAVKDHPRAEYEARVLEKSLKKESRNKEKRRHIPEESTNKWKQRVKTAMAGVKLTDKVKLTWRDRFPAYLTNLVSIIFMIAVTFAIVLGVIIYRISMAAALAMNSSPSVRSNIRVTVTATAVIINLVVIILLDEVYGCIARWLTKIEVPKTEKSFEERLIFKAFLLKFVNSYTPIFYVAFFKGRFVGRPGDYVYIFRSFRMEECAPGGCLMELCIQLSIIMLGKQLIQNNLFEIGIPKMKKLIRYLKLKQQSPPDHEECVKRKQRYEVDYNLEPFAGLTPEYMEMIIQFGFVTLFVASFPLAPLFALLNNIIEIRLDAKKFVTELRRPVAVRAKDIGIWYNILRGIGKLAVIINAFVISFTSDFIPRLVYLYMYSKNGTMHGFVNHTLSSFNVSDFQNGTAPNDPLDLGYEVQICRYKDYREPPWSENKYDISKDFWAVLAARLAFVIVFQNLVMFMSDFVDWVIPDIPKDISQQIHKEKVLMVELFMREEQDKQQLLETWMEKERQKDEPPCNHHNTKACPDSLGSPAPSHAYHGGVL
# ASSAY_COMMENT: Inhibition of YFP tagged ANO1 (unknown origin) expressed in FRT cells incubated for 24 hrs by fluorescence plate reader assay
# Type: cell-based

{"GIVEN_SMILES": "O=C(O)c1c(-c2ccc(Cl)cc2)csc1NC(=O)c1cccc2ncccc12", "SUBJECT_OF_TEST": "UniProt Q5XXA6", "UNIT_INFO": "µM", "INEQUALITY_SYMBOL": "=", "IC50": 6.99}
{"GIVEN_SMILES": "O=C(Nc1scc(-c2ccc(Cl)cc2)c1C(=O)O)c1cc(Cl)ccc1F", "SUBJECT_OF_TEST": "UniProt Q5XXA6", "UNIT_INFO": "µM", "INEQUALITY_SYMBOL": "=", "IC50": 8.77}
{"GIVEN_SMILES": "O=C(Nc1scc(-c2ccc(Cl)cc2)c1C(=O)O)c1ccc(Cl)cc1Cl", "SUBJECT_OF_TEST": "UniProt Q5XXA6", "UNIT_INFO": "µM", "INEQUALITY_SYMBOL": "=", "IC50": 1.24}
{"GIVEN_SMILES": "O=C(Nc1scc(-c2ccc(Cl)cc2)c1C(=O)O)c1cc(C(F)(F)F)ccc1Cl", "SUBJECT_OF_TEST": "UniProt Q5XXA6", "UNIT_INFO": "µM", "INEQUALITY_SYMBOL": "=", "IC50": 36.9}
{"GIVEN_SMILES": "O=C(Nc1scc(-c2ccc(Cl)cc2)c1C(=O)O)c1cc(Cl)ccc1C(F)(F)F", "SUBJECT_OF_TEST": "UniProt Q5XXA6", "UNIT_INFO": "µM", "INEQUALITY_SYMBOL": "=", "IC50": 1.59}
{"GIVEN_SMILES": "O=C(Nc1scc(-c2ccc(Cl)cc2)c1C(=O)O)c1cc(Br)ccc1F", "SUBJECT_OF_TEST": "UniProt Q5XXA6", "UNIT_INFO": "µM", "INEQUALITY_SYMBOL": "=", "IC50": 59.8}
{"GIVEN_SMILES": "O=C(Nc1scc(-c2ccc(Cl)cc2)c1C(=O)O)c1cc(Cl)ccc1Cl", "SUBJECT_OF_TEST": "UniProt Q5XXA6", "UNIT_INFO": "µM", "INEQUALITY_SYMBOL": "=", "IC50": 0.27}
{"GIVEN_SMILES": "O=C(Nc1scc(-c2ccc(Cl)cc2)c1C(=O)O)c1cccnc1", "SUBJECT_OF_TEST": "UniProt Q5XXA6", "UNIT_INFO": "µM", "INEQUALITY_SYMBOL": "=", "IC50": 70.6}
{"GIVEN_SMILES": "O=C(Nc1scc(-c2ccc(Cl)cc2)c1C(=O)O)c1cc(I)ccc1F", "SUBJECT_OF_TEST": "UniProt Q5XXA6", "UNIT_INFO": "µM", "INEQUALITY_SYMBOL": "=", "IC50": 4.49}
{"GIVEN_SMILES": "O=C(O)c1c(-c2ccc(Cl)cc2)csc1NC(=O)c1cccc2ccccc12", "SUBJECT_OF_TEST": "UniProt Q5XXA6", "UNIT_INFO": "µM", "INEQUALITY_SYMBOL": "=", "IC50": 0.79}
{"GIVEN_SMILES": "O=C(Nc1scc(-c2ccc(Cl)cc2)c1C(=O)O)c1cc(F)ccc1Cl", "SUBJECT_OF_TEST": "UniProt Q5XXA6", "UNIT_INFO": "µM", "INEQUALITY_SYMBOL": "=", "IC50": 6.55}
{"GIVEN_SMILES": "O=C(Nc1scc(-c2ccc(Cl)cc2)c1C(=O)O)c1cc(Br)ccc1Cl", "SUBJECT_OF_TEST": "UniProt Q5XXA6", "UNIT_INFO": "µM", "INEQUALITY_SYMBOL": "=", "IC50": 83.5}
{"GIVEN_SMILES": "O=C(Nc1scc(-c2ccc(Cl)cc2)c1C(=O)O)c1cccc2c1OCO2", "SUBJECT_OF_TEST": "UniProt Q5XXA6", "UNIT_INFO": "µM", "INEQUALITY_SYMBOL": ">", "IC50": 100}
{"GIVEN_SMILES": "O=C(O)c1c(-c2ccc(Cl)cc2)csc1NC(=O)c1cccc2cccnc12", "SUBJECT_OF_TEST": "UniProt Q5XXA6", "UNIT_INFO": "µM", "INEQUALITY_SYMBOL": ">", "IC50": 300}
